Listed here: items and their measured MCPA Vmax.
- assay_procedure: enzyme activity assay at 23° C. with purified enzyme
- Format: biochemical
- experimental_conditions: percentage of wild-type RdpA, set at 100%

Please review the entries below; each comes with its answer.
molecule | MCPA Vmax
MON-HT15: engineered oxygenase protein, amino acid sequence SEQ ID NO:49 (protein) MHAALTPLTNKYRHIDVQPLTGVLGAEITGVDLREPLDDSTWNEILDAFHTYQVIYFPGQAITNEQHIAFSRRFGPVDPVPILKSIEGYPEVQMIRREANESSRYIGDDWHADSTFLDAPPAAVVMRAIEVPEYGGDTGFLSMYSAWETLSPAMQATIEGLNVVHSATKVFGSLYQATNWRFSNTSVKVMDVDAGDRETVHPLVVTHPVTGRRALYCNQIYCQKIQGMTDAESKSLLQFLYEHATQFDFTCRVRWKKDQVLVWDNLCTMHRAVPDYAGKFRYLTRTTVAGDKPSR | 1300%
MON-HT17: engineered oxygenase protein, amino acid sequence SEQ ID NO:51 (protein) MHAALTPLTNKYRFIDVQPLTGVLGAEITGVDLREPLDDSTWNEILDAFHTYQVIYFPGQAITNEQHIAFSRRFGPVDPVPILKSIEGYPEVQMIRREANESSRYIGDDWHADSTFLDAPPAAVVMRAIEVPEYGGDTGFLSMYSAWETLSPTMQATIEGLNVVHSATKVFGSLYQATNWRFSNTSVKVMDVDAGDRETVHPLVVTHPVTGRRALYCNQVYCQKIQGMTDAESKSLLQFLYEHATQFDFTCRVRWKKDQVLVWDNLCTMHRAVPDYAGKFRYLTRTTVAGDKPSR | 1400%
MON-HT13: engineered oxygenase protein, amino acid sequence SEQ ID NO:47 (protein) MHAALTPLTNKYRFIDVQPLTGVLGAEITGVDLREPLDDSTWNEILDAFHTYQVIYFPGQAITNEQHIAFSRRFGPVDPVPILKSIEGYPEVQMIRREANESSRYIGDDWHADSTFLDAPPAAVVMRAIEVPEYGGDTGFLSMYSAWETLSPTMQATIEGLNVVHSATKVFGSLYQATNWRFSGTSVKVMDVDAGDRETVHPLVVTHPVTGRRALYCNQVYCQKIQGMTDAESKSLLQFLYEHATQFDFTCRVRWKKDQVLVWDNLCTMHRAVPDYAGKFRYLTRTTVAGDKPSR | 1800%

// MCPA Vmax lookup, key: MON-HT1: engineered oxygenase protein, amino acid sequence SEQ ID NO:14 (protein) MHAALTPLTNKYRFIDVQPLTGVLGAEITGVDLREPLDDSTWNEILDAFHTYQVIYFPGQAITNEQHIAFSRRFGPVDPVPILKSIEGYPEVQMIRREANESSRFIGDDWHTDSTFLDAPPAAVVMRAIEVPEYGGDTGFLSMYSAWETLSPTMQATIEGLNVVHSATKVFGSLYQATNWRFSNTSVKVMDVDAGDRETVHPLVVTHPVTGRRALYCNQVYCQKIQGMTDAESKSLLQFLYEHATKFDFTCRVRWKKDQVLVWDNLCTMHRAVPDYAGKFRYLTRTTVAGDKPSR
600%
